target: Cytochrome P450 1A2 (Homo sapiens); assay: Cytochrome panel assay with activity outcomes; details: recombinant CYP, pro-luciferin dealkylation, luminescence, p450-cyp1a2; series mostly up to 57.1 µM
In all, about 16,000 compounds went through this assay and about 5,700 (36%) were called active. Roughly 24% stayed inconclusive and do not appear here. Calls follow the shape of the dose curve; as a rule, active = well fitted curve in the direction sought with a large enough effect; inconclusive = small, poorly fitted or top-dose-only effect, or effect the other way; inactive = no such curve, though single readings can be large or run the other way. Some of the results follow.
Outcomes: t for active, f for inactive

{"columns": ["compound", "group"],
 "data": [
  ["CN(C)Cc1ccccc1-c1nc(NCc2ccccc2)c2ccccc2n1", "t"],
  ["Cc1ccc(C(=O)Nc2cc(Cl)ccc2OC(=O)c2ccc(C)cc2)cc1", "t"],
  ["CC(C)COc1ccc(C(=O)Nc2scc(-c3ccc(Cl)cc3Cl)c2C(N)=O)cc1", "f"],
  ["COc1ccc(C(=O)Nc2cc(Cl)ccc2OC(=O)c2ccc(OC)cc2)cc1", "t"],
  ["COCCNc1nc(-c2ccccc2CN(C)C)nc2ccccc12", "t"],
  ["Cc1ccc(C(=O)O[C@@H](C(=O)O)[C@@H](OC(=O)c2ccc(C)cc2)C(=O)O)cc1 (tested in a mixture with another compound)", "f"],
  ["Cc1sc(NC(=O)c2ccc(OCC(C)C)cc2)c(C(N)=O)c1-c1ccc(Cl)cc1Cl", "f"],
  ["O=C(COC(=O)c1cccnc1Cl)c1ccccc1", "t"],
  ["Cc1ccc(C(=O)COC(=O)c2ccc3c(c2)C(=O)N(c2cccc4ncccc24)C3=O)cc1C", "f"]
]}

---

biological target: Cytochrome P450 1A2 (Homo sapiens) (UniProt P05177); assay: Cytochrome panel assay with activity outcomes; details: recombinant CYP, pro-luciferin dealkylation, luminescence, p450-cyp1a2; series mostly up to 57.1 µM
Sequence (P05177 whole entry, looked up): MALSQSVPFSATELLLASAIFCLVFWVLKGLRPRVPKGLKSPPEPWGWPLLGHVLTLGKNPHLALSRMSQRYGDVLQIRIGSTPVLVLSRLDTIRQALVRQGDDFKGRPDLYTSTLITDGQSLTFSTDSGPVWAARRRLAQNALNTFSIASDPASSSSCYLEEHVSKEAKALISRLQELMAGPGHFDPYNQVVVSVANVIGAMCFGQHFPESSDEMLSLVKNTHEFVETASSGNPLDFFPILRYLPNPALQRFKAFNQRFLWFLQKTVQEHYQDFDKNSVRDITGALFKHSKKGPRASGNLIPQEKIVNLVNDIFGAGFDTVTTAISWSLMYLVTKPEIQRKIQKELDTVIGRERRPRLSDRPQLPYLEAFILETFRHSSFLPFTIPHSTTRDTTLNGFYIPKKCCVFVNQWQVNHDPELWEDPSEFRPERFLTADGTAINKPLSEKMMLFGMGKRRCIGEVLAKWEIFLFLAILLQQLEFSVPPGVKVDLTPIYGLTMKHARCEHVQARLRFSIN
In all, about 16,000 compounds went through this assay and about 5,700 (36%) were called active. Not shown: some 24% with an inconclusive outcome. Calls follow the shape of the dose curve; as a rule, active = well fitted curve in the direction sought with a large enough effect; inconclusive = small, poorly fitted or top-dose-only effect, or effect the other way; inactive = no such curve, though single readings can be large or run the other way. Some of the results follow.
Outcomes: true (1) = active, false (0) = inactive

{"columns": ["compound", "group"],
 "data": [
  ["CCN(CC)S(=O)(=O)c1ccc2c3c(cccc13)C(=O)S2", "true (1)"],
  ["OCCN1CCN(C(=S)c2ccc(Br)cc2)CC1", "false (0)"],
  ["C/C(Cl)=C\\Cn1c(N2CCCC2)nc2c1c(=O)[nH]c(=O)n2C", "true (1)"],
  ["N#Cc1ccc(C(c2nnnn2Cc2ccccc2)N2CCCC2)cc1 (stereo unspecified)", "false (0)"],
  ["COC(=O)[C@@]1(Cc2ccccc2)[C@H]2c3cc(C(=O)N4CCCC4)n(Cc4ccsc4Br)c3C[C@H]2CN1C(=O)c1ccccc1", "false (0)"],
  ["O=c1c(-c2cccs2)nc2cncnc2n1Cc1ccccc1", "true (1)"],
  ["CCN(CC)S(=O)(=O)c1cccc2c(N(C)C)cccc12", "true (1)"],
  ["CC(C)c1ccc(Cn2ccc3c4c(N)nc(NC5CC5)nc4ccc32)cc1", "true (1)"],
  ["O=C1CN(c2nc(-c3ccccc3)c3cc(Br)ccc3n2)c2ccccc2N1", "true (1)"],
  ["O=c1c(-c2cccs2)nc2cncnc2n1Cc1ccc(F)cc1", "true (1)"],
  ["CCN(CC)C(=O)C1CC(=O)N(c2ccc(OC)cc2)C1c1ccc(OC)cc1 (stereo unspecified)", "false (0)"]
]}

---

biological target: Cytochrome P450 1A2 (Homo sapiens); assay: Cytochrome panel assay with activity outcomes; details: recombinant CYP, pro-luciferin dealkylation, luminescence, p450-cyp1a2; series mostly up to 57.1 µM; as to activity, negative = inhibition: % is scaled to controls: 0 for no effect and ±100 for the full control effect
The whole screen tested about 16,000 compounds, of which about 5,700 (36%) were called active. Inconclusive results (about 24%) are left out. The list shows a part of the results.
As shown below, each of these compounds has a reported activity, negative = inhibition value.

{"columns": ["compound", "activity, negative = inhibition"],
 "data": [
  ["CCOC(=O)c1cnc(N(C)C)nc1SC(=N)N", "-22.6% [at 2.29 µM] (inactive)"],
  ["COc1cccc([C@@H]2Oc3ccc(OC)cc3/C(=N/O[C@@H](C)c3cn([C@H]4COC[C@H]4O)nn3)[C@@H]2O)c1", "8.26% [at 11.4 µM] (inactive)"],
  ["CC(=O)C=NCC(=O)O", "0.0576% [at 11.4 µM] (inactive)"],
  ["C#CCCCO/N=C1/[C@H]2O[C@@H]2[C@@H](O)[C@H]2[C@H]1CCn1c(=O)n(C)c(=O)n12", "-0.0514% [at 11.4 µM] (inactive)"],
  ["CCSC[C@@H](N)C(=O)O", "-1.61% [at 2.29 µM] (inactive)"],
  ["O=C(O)CCc1nc(-c2ccccc2-n2cccc2)no1", "-17.3% [at 2.29 µM] (inactive)"],
  ["O=C(O)C[C@H](Cc1ccccc1Cl)C(=O)O", "-17.6% [at 11.4 µM] (inactive)"],
  ["Nc1nc(SCc2ccccc2Cl)cc(C(=O)O)n1", "6.21% [at 2.29 µM] (inactive)"],
  ["O=C1CCCC=C1[C@@H](O)CCOC(c1ccccc1)(c1ccccc1)c1ccccc1", "-6.79% [at 11.4 µM] (inactive)"],
  ["CCOC(=O)N/N=C1/C[C@@H](O)[C@@H](O)[C@@H]2[C@@H]3C(=O)N([C@@H](C)c4ccccc4)C(=O)[C@H]3CC[C@H]12", "7.27% [at 11.4 µM] (inactive)"]
]}

Data provenance: PubChem BioAssay AID1851
